# target: human 17β-HSD2 (Homo sapiens)
# Construct: 17β-HSD2 was obtained from the microsomal fraction; from tissue; host or cells: human placenta, microsomal fraction
# Sequence (P37059 1-387): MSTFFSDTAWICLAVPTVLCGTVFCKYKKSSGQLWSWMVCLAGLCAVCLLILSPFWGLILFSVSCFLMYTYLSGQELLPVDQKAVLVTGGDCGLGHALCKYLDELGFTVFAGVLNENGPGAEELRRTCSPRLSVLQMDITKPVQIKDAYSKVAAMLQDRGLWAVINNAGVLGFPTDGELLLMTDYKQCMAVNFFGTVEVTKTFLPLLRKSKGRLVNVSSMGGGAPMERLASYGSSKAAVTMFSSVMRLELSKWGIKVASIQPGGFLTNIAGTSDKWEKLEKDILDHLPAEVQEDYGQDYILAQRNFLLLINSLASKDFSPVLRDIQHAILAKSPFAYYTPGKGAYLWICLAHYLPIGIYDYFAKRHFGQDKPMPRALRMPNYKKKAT
# method-summary: Inhibition of human 17β-HSD2 (conversion of [3H]-E2 to E1)
# Assay type: biochemical
# settings: read-out: % inhibition h17β-HSD2 @ 10 nM
Lab note: compare inhibition at 0.01 µM against 80%. Equal or greater, write Criterion met. Smaller, write Criterion not met.

Known results for compounds:
smiles-text | category-label
COc1ccccc1-c1ccc(C(=O)c2cc(F)c(F)c(O)c2F)s1 | Criterion met
O=C(c1ccc(-c2ccc3cccnc3c2)s1)c1cc(F)c(F)c(O)c1F | Criterion met
CC(=O)Nc1cccc(-c2ccc(C(=O)c3cc(F)c(F)c(O)c3F)s2)c1 | Criterion met
O=C(c1ccc(-c2cccnc2)s1)c1cc(F)c(F)c(O)c1F | Criterion not met
NS(=O)(=O)c1ccc(-c2ccc(C(=O)c3c(F)ccc(O)c3F)s2)cc1 | Criterion not met
Cc1c(N)cccc1-c1ccc(C(=O)c2cc(F)c(F)c(O)c2F)s1 | Criterion not met

Identify whether the reported inhibition at 0.01 µM of the following compound is 80% or greater: CC(=O)Nc1ccc(-c2ccc(C(=O)c3cc(F)c(F)c(O)c3F)s2)cc1 Criterion not met

Identify whether the reported inhibition at 0.01 µM of the following compound is 80% or greater: COc1ccc(-c2ccc(C(=O)c3cc(F)c(F)c(O)c3F)s2)cc1N Criterion not met

###

# target: mouse 17β-HSD1 (Mus musculus)
# Construct: made in house; host or cells: HEK293 cells, transient transfection; 1,000 g supernatant of the cell lysate
# method-summary: Inhibition of mouse 17β-HSD1 (recombinant, HEK293 lysate)
# Type: biochemical
# settings: read-out: Inhibition @ 1 μM m17β-HSD1
measurement-kind: inhibition at 1 µM (%)
Numbers only, in %.

molecule | measurement-kind | measured-value
Cn1cnc(S(=O)(=O)Nc2cccc(-c3ccc(C(=O)c4cc(F)c(F)c(O)c4F)s3)c2)c1 [Compound 48] | inhibition at 1 µM | 12.1
O=C(c1ccc(-c2cccnc2)s1)c1c(F)ccc(O)c1F [Compound 9] | inhibition at 1 µM | 14
O=C(c1ccc(-c2cccc(NS(=O)(=O)c3ccccc3OC(F)(F)F)c2)s1)c1cc(F)c(F)c(O)c1F [Compound 37] | inhibition at 1 µM | 55

Summary for this molecule, O=C(c1ccc(-c2ccc(F)cc2F)s1)c1c(F)ccc(O)c1F [Compound 10] : inhibition at 1 µM is 41

###

# target: mouse 17β-HSD1 (Mus musculus, UniProt P51656)
# Construct: made in house; host or cells: HEK293 cells, transient transfection; 1,000 g supernatant of the cell lysate
# Sequence (P51656 1-344): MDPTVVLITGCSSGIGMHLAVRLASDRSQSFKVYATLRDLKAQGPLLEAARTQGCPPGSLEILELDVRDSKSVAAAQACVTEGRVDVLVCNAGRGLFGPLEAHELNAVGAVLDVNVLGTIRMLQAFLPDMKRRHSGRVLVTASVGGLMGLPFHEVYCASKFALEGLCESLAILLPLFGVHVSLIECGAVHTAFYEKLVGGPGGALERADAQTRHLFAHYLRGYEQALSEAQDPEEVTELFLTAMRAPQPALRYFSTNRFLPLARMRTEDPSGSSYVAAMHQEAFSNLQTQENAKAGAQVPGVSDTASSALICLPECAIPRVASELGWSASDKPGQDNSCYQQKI
# method-summary: Inhibition of mouse 17β-HSD1 (recombinant, HEK293 lysate)
# Assay type: biochemical
# settings: read-out: % inhibition m17β-HSD1 @ 1 μM
Provide the recorded inhibition at 1 µM for the entries that follow.
Numbers only, in %.

The cases that follow already have their inhibition at 1 µM on record.
molecule | inhibition at 1 µM [%]
Nc1cccc(-c2ccc(C(=O)c3c(F)ccc(O)c3F)s2)c1 | 30
Cc1c(O)cccc1C(=O)c1ccc(-c2ccc(O)c(Cl)c2)s1 [E, reference compound] | 14
O=C(c1ccc(-c2ccc(F)cc2F)s1)c1cccc(O)c1F [C, reference compound] | 18
O=C(c1ccc(Br)s1)c1c(F)ccc(O)c1F | 5
Cc1c(O)cccc1C(=O)c1ccc(-c2ccc(F)cc2F)s1 [B, reference compound] | 5

Quick one: give me inhibition at 1 µM for each item below, same order please.
1. O=C(c1ccc(Br)s1)c1cc(F)c(F)c(O)c1F
2. O=C(c1ccc(-c2cccc(NS(=O)(=O)c3ccccc3OC(F)(F)F)c2)s1)c1cc(F)c(F)c(O)c1F
3. O=C(c1cccc(O)c1)c1ccc(-c2ccc(O)c(Cl)c2)s1 [D, reference compound]

1: 11; 2: 55; 3: 42

###

# target: mouse 17β-HSD2 (Mus musculus, UniProt P51658)
# Construct: The pellet fractions containing the microsomal 17β-HSD2 were used for the determination of E1 formation; from tissue; host or cells: mouse liver, microsomal fraction
# Sequence (P51658 whole entry): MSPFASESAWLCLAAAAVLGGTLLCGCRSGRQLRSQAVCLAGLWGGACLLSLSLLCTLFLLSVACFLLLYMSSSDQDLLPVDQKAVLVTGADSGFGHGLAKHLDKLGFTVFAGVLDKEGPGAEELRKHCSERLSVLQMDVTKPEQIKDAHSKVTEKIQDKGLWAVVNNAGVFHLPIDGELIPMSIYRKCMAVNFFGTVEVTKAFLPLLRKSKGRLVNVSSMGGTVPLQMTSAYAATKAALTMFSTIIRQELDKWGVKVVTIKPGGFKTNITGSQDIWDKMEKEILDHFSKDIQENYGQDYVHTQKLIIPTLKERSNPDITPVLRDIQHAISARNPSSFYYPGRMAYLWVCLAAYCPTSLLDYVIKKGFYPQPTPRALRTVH
# method-summary: Inhibition of mouse 17β-HSD2 (liver microsomal fraction)
# Type: biochemical
# settings: read-out: Inhibition @ 1 μM m17β-HSD2
Lab note: compare inhibition at 1 µM against 80%. Equal or greater, write Fulfilled. Smaller, write Not fulfilled.

Known results for compounds:
compound | category-label
COc1ccc(-c2ccc(C(=O)c3c(F)ccc(O)c3F)s2)cc1S(=O)(=O)N1CCOCC1 | Not fulfilled
O=C(c1ccc(-c2cccnc2)s1)c1c(F)ccc(O)c1F | Not fulfilled
COc1c(Cl)cc(-c2ccc(C(=O)c3c(F)ccc(O)c3F)s2)cc1CN1CCN(C(C)=O)CC1 | Not fulfilled
COc1ccc(-c2ccc(C(=O)c3c(F)ccc(O)c3F)s2)cc1Cl | Not fulfilled

Identify whether the reported inhibition at 1 µM of the following compound is 80% or greater: Cc1cc(-c2ccc(C(=O)c3c(F)ccc(O)c3F)s2)cc(C)c1O Not fulfilled

Identify whether the reported inhibition at 1 µM of the following compound is 80% or greater: Cc1cc(-c2ccc(C(=O)c3cccc(O)c3)s2)ccc1O [Compound F1, reference compound] Not fulfilled

Identify whether the reported inhibition at 1 µM of the following compound is 80% or greater: COc1c(Cl)cc(-c2ccc(C(=O)c3c(F)ccc(O)c3F)s2)cc1Cn1ccnn1 Fulfilled

Identify whether the reported inhibition at 1 µM of the following compound is 80% or greater: COc1c(Cl)cc(-c2ccc(C(=O)c3c(F)ccc(O)c3F)s2)cc1CN1CCNCC1 Not fulfilled

Identify whether the reported inhibition at 1 µM of the following compound is 80% or greater: CC(=O)N1CCN(Cc2cc(-c3ccc(C(=O)c4c(F)ccc(O)c4F)s3)cc(Cl)c2O)CC1 Not fulfilled

Identify whether the reported inhibition at 1 µM of the following compound is 80% or greater: O=C(c1ccc(-c2ccc(O)c(Cl)c2)s1)c1cc(F)c(F)c(O)c1F Fulfilled

Identify whether the reported inhibition at 1 µM of the following compound is 80% or greater: COc1c(C)cc(-c2ccc(C(=O)c3c(F)ccc(O)c3F)s2)cc1C Not fulfilled

Identify whether the reported inhibition at 1 µM of the following compound is 80% or greater: O=C(c1ccc(Br)s1)c1cc(F)c(F)c(O)c1F Not fulfilled

Identify whether the reported inhibition at 1 µM of the following compound is 80% or greater: COc1ccc(-c2sc(C(=O)c3c(F)ccc(O)c3F)cc2C)cc1Cl Not fulfilled

Identify whether the reported inhibition at 1 µM of the following compound is 80% or greater: O=C(c1ccc(-c2ccc(F)cc2F)s1)c1c(F)ccc(O)c1F Not fulfilled

Identify whether the reported inhibition at 1 µM of the following compound is 80% or greater: O=C(c1ccc(-c2cc(F)c(OC(F)F)c(F)c2)s1)c1c(F)ccc(O)c1F Not fulfilled

Identify whether the reported inhibition at 1 µM of the following compound is 80% or greater: O=C(c1ccc(-c2ccc(O)c(F)c2)s1)c1cc(F)c(F)c(O)c1F Fulfilled

Identify whether the reported inhibition at 1 µM of the following compound is 80% or greater: O=C(c1ccc(-c2cccc(Cl)c2)s1)c1c(F)ccc(O)c1F Not fulfilled

Identify whether the reported inhibition at 1 µM of the following compound is 80% or greater: O=C(c1ccc(-c2cncc(F)c2)s1)c1cc(F)c(F)c(O)c1F Not fulfilled

Identify whether the reported inhibition at 1 µM of the following compound is 80% or greater: N#Cc1cc(-c2ccc(C(=O)c3c(F)ccc(O)c3F)s2)ccc1O Not fulfilled

These measurements were taken from patent US9884839B2.
